Reported inhibition values are given for each entry in this list.
Assay: A qHTS for Small Molecule Inhibitors of Shiga Toxin; as to inhibition: 0% is about no effect
Settings: Vero cells, Shiga toxin protein synthesis inhibition reporter; at 38.7 µM, hits give high values
The campaign covered roughly 290,000 compounds. About 27,000 (9.3%) were called active. This is one part of a sample in which actives are shown more often than they occur.
parameterMeasured: inhibition (%)

1. Cc1ccc(OCc2n[nH]c(=S)n2-c2ccc(C)cc2)cc1 :: -9.95
2. Cc1ccc(C(=O)c2coc3ccc(O)c(CN(C)C)c23)cc1 :: -0.742
3. O=C(C[n+]1ccccc1)N/N=C/c1ccc(O)cc1 :: 30.3
4. COCCNc1ccc(-c2n[nH]c(=O)c3ccccc23)cc1[N+](=O)[O-] :: -2.3
5. CCC(C)(C)n1nnnc1C(c1ccc(OC)c(OC)c1)N1CCN(C(=O)c2ccco2)CC1 (stereo unspecified) :: -11.9
6. CCOc1ccc(NC(=O)CN2CCN(CC(=O)Nc3ccc(OC)cc3)CC2)cc1 :: -3.78
7. CCCc1cc(=O)oc2c(C)c(OC(C)C(=O)NCC(O)c3ccccc3)ccc12 (stereo unspecified) :: -4.11
8. Cc1nc2ccc(C(=O)N/N=C/c3ccc(O)cc3)cc2[nH]1 :: 22.1
9. Cc1nonc1C(=O)N/N=C/c1ccc(O)cc1 :: 72.1
10. Cc1nc(SCC(=O)NC2CCCC2)[nH]c(=O)c1C :: -3
11. c1ccc(CN=C2Nc3ccccc3CS2)nc1 :: 59.8
12. CCc1ccc2c(c1)C(c1ccc([N+](=O)[O-])cc1)=NNC(c1ccccc1)=N2 :: 31.4
13. O=Cc1c(NCCCN2CCCC2=O)c2ccccc2[nH]c1=O :: 7.22
14. O=S(=O)(c1ccc(Cl)cc1)c1nc(-c2ccco2)oc1N1CCCCC1 :: -0.989
15. CCOc1ccc(NC(=O)C(C)N2C(=O)c3ccccc3C2=O)cc1 (stereo unspecified) :: -15.9
16. COc1ccc(CN(C)C(=O)Cc2c[nH]c3ccccc23)c(OC)c1OC :: -4.06

====

Experiment: A qHTS for Small Molecule Inhibitors of Shiga Toxin; as to inhibition: 0% is about no effect
Settings: Vero cells, Shiga toxin protein synthesis inhibition reporter; at 38.7 µM
Among all 290,000 compounds or so, about 27,000 (9.3%) were called active. Cut-off read from the data, not from the text of the source: active = inhibition mostly above about 28% (no sharp cut-off); inactive = mostly below about 43%. For the sample, actives were picked, then their nearest neighbours and some compounds at random.
Outcome codes: active, inactive

1) COc1ccc(CNS(=O)(=O)c2cc(-c3cc(C)no3)ccc2C(C)C)cc1 :: inactive
2) CC(C)CNC(=S)NC(=O)c1ccc(Cl)cc1 :: active
3) COc1ccc(C(=O)CC(=O)c2ccc(C)cc2)c(O)c1 :: inactive
4) O=C(NCC1CCCO1)/C(=C/c1ccc(Cl)cc1)NC(=O)c1ccccc1 (centres undefined) :: inactive

====

Reported inhibition values are given for each entry in this list.
Assay: A qHTS for Small Molecule Inhibitors of Shiga Toxin; as to inhibition: 0% is about no effect
Details: Vero cells, Shiga toxin protein synthesis inhibition reporter; at 38.7 µM, hits give high values
Out of some 290,000 compounds screened, about 27,000 (9.3%) were called active. Many of the other results were omitted from the sample, so actives are more common in it than they were.
parameterMeasured: inhibition (%)

1. CCn1ccnc1CN(C)C(=O)c1cc(COc2ccc(Cl)cc2OC)on1 :: 49.5
2. COc1ccc(-c2ccc(C3C4C=CCCC4(C)C(=O)N3Cc3ccccc3)c(F)c2)cc1OC (configuration not stated) :: -1.56
3. Cc1cccc(S(=O)(=O)N2CN(CC3CCCO3)c3nc4ccccc4nc32)c1 (configuration not stated) :: -6.17
4. Cc1ccc(OCC(=O)Nc2ccc(NC(=O)c3cccs3)cc2)c(C)c1 :: 25.9
5. C=CCSc1nnc(N2C(=O)C(O)=C(C(=O)c3ccco3)C2c2ccc(F)cc2)s1 (configuration not stated) :: 19.6
6. NNC(=O)c1ccc(Cl)cc1Cl :: 16.2
7. C/C(CC(=O)NCc1ccc(Cl)cc1)=N\NC(=O)COc1ccc(C)cc1Br :: 2.05
8. Cc1[nH]c(C)c(S(=O)(=O)N2CCC(C)CC2)c1C(=O)N1CCCC1 :: -4.27
9. Cc1nnc(NC(=O)C(c2ccccc2)c2ccccc2)s1 :: -9.41
10. CN1C2CCC1CC(NC(=O)c1ccc([N+](=O)[O-])cc1)C2 (configuration not stated) :: -5.48
11. Cc1cccc(NC(=S)NCCc2ccc(Cl)cc2)c1C :: 41.2
12. COc1ccc(/C=N/Nc2ncnc3sc4c(c23)CCCC4)cc1O :: 79.2

====

Reported inhibition values are given for each entry in this list.
Test: A qHTS for Small Molecule Inhibitors of Shiga Toxin; as to inhibition: 0% is about no effect
Conditions: Vero cells, Shiga toxin protein synthesis inhibition reporter; at 38.7 µM, hits give high values
About 27,000 (9.3%) of roughly 290,000 compounds were called active. The list comes from a sample in which actives are over-represented; it also holds close analogues and randomly drawn compounds.
parameterMeasured: inhibition (%)

1) COc1ccc(NC(=O)COc2ccc(C(=O)c3ccc(F)cc3)cc2)cc1S(N)(=O)=O :: -4.25
2) O=C(CC1C(=O)NCCN1C(=O)c1ccc([N+](=O)[O-])cc1)Nc1cccc(Cl)c1 (stereo not given) :: -30.7
3) COc1ccc(CCNC(=O)C(=O)NCc2ccccc2C)cc1OC :: -10.9
4) COc1ccc(OC)c(NC(=O)c2cccc(S(=O)(=O)N3CCN(C(C)=O)CC3)c2)c1 :: 1.91
5) COc1ccc(-c2nc(CS(=O)(=O)CC(=O)NCc3cccc(Br)c3)c(C)o2)cc1 :: 4.36

====

Assay: A qHTS for Small Molecule Inhibitors of Shiga Toxin; as to inhibition: 0% is about no effect
Conditions: Vero cells, Shiga toxin protein synthesis inhibition reporter; at 38.7 µM, hits give high values
The campaign covered roughly 290,000 compounds. About 27,000 (9.3%) were called active. For the sample, actives were picked, then their nearest neighbours and some compounds at random.
parameterMeasured: inhibition

1) CC(C)(C)Nc1nc(-c2ccccn2)nc2ccccc12 :: -14.9% (inactive)
2) Cc1occc1C(=O)Nc1nnc(-c2ccncc2)s1 :: 28.4% (inactive)
3) CCOC(=O)c1ccc(NC2Nc3cc(C)nn3S2)cc1 (stereo not given) :: 37.2% (inactive)
4) O=C(Nc1nnc(C2CC2)s1)C1=NN(C2CCS(=O)(=O)C2)C(=O)CC1 (stereo not given) :: -18% (inactive)
5) CC1C(=O)Nc2ccccc2N1C(=O)c1c(F)cccc1F (stereo not given) :: -5.2% (inactive)
6) Cc1ccc(Oc2nc(-c3ccccn3)nc3ccccc23)cc1 :: 57.7% (active)
7) Cc1ccc(NS(=O)(=O)c2ccc3c(c2)oc(=O)n3C)c(C)c1 :: 0.571% (inactive)
8) O=C(Cc1cccs1)Nc1nnc(C2CC2)s1 :: 18.3% (inactive)
9) CCOC(=O)c1cnc(Nc2nc3ccccc3o2)nc1CSC(=S)N1CCCCC1 :: 36.8% (inactive)
10) COc1ccc(-c2cn[nH]c2-c2ccc(OC)cc2)cc1 :: -4.19% (inactive)
11) CN(Cc1ccc(F)cc1)C(=O)COc1ccc2ccccc2c1 :: 26.4% (inactive)
12) O=C(Nc1nnc(C2CC2)s1)c1ccccn1 :: 109% (active)
13) CC1CC(C)CN(C(=O)C2CC(=O)N(c3ccc(F)cc3)C2)C1 (stereo not given) :: -7.56% (inactive)
14) COc1ccccc1CNS(=O)(=O)CC12CCC(CC1=O)C2(C)C (stereo not given) :: -4.21% (inactive)
15) COc1ccc(C(CCN2CCOCC2)c2c(OC)cc(OC)c3c2OC(=O)CC3c2ccc(OC)cc2)cc1 (stereo not given) :: -0.588% (inactive)
16) CCS(=O)(=O)c1cc([N+](=O)[O-])c(Sc2ccccc2N)s1 :: 101% (active)
17) CCOc1ccc(N2C(=O)CC(N(CCc3ccc(OC)c(OC)c3)C(=S)Nc3ccccc3)C2=O)cc1 (stereo not given) :: 9.09% (inactive)
18) Cc1ccc(C(=O)NCCN2CCOCC2)cc1C :: 19% (inactive)
19) COc1ccc(OC)c(S(=O)(=O)N2CCCC(C(=O)NCCc3ccccc3)C2)c1 (stereo not given) :: 9.04% (inactive)
20) CC1CCN(c2ccc(C(=O)Nc3nnc(C4CC4)s3)cc2[N+](=O)[O-])CC1 :: 1.09% (inactive)

====

Experiment: A qHTS for Small Molecule Inhibitors of Shiga Toxin; as to inhibition: 0% is about no effect
Conditions: Vero cells, Shiga toxin protein synthesis inhibition reporter; at 38.7 µM
Out of some 290,000 compounds screened, about 27,000 (9.3%) were called active. Rule as the data show it: active = inhibition mostly above about 28% (no sharp cut-off); inactive = mostly below about 43%. The entries come from a sample that favours actives as a whole.
Outcome codes: active, inactive

1. O=C1OC2(CCCCC2)CC2=C1C1O[C@](c3ccsc3)(Cc3ccccc31)O2 :: inactive
2. COc1ccc(S(=O)(=O)Nc2ccc3c(c2)OCO3)cc1Cl :: active
3. CN(CC(=O)O)S(=O)(=O)c1ccc2oc3ccccc3c2c1 :: inactive
4. COc1cc(OC)c(C(=O)NCc2ccc3c(c2)OCO3)cc1OC :: inactive
5. O=C(Nc1ccc(Cl)cc1)Nc1ccc(Oc2cccnc2)nc1 :: active
